system_under_test: T1, MDM2 (res 2-125) (UniProt Q00987 2-125)
T1 construct: range 2-125
experimental_protocol: fluorescence anisotropy titration, λex=280 nm; λex=280 nm
Starred links: 1 amine or outer side, 2 acyl side, 3 side chain; linkers in the order of their positions; H or OH if unused. Positions of bridges follow the written chain, without caps; N, C: chain ends. TBMB = c1c(C[*:1])cc(C[*:3])cc1C[*:2]
endpoint_name: Kd (µM)
Just the number in µM, nothing appended.

Kd lookup needed for H-SCVRFGWTCDNSWHGCKG-OH (linker 2-9-16 via TBMB, measured in PBS with 5 mM DTT; also called peptide 48; PEP48L1-PEP48L2 bicyclic peptide) [PEP48 bicyclic peptide (synthetic peptide of phage clone 48 conjugated to TBMB)] , thanks.
0.76
